Test Method Notes: Cys-Lys stapling of unprotected peptides with unsymmetrical linker (1.5 equiv): Cys thiol displaces phthalimide from N-thiophthalimide (disulfide, ~1 min), then ring closure by Lys amine attack on pentafluorophenyl ester with DIPEA (4 equiv)
Particulars: the molecule shown is the open-chain precursor; 26-membered ring; CH3CN:H2O 3:1; 25.0 °C; 0.167 h
Measured Attribute: ring closure, isolated yield (%)
# unit: % | format: bare number

Please give the documented ring closure, isolated yield of CC(=O)N[C@@H](CCCCN)C(=O)N[C@@H](C)C(=O)N[C@@H](C)C(=O)N[C@@H](C)C(=O)N[C@@H](CSS/C(=C/Cl)CCCC(=O)Oc1c(F)c(F)c(F)c(F)c1F)C(=O)N[C@@H](Cc1ccccc1)C(N)=O [Ac-Lys-Ala-Ala-Ala-Cys(S-linker 3b-OPfp)-Phe-NH2] 76

These data points were gathered from paper PMC12596731.
